- target-under-test: T1, human RGMa (human, UniProt Q96B86 48-422, limits assumed)
- T1 construct: also called hRGMa; h RGMa
- T1 sequence (looked up): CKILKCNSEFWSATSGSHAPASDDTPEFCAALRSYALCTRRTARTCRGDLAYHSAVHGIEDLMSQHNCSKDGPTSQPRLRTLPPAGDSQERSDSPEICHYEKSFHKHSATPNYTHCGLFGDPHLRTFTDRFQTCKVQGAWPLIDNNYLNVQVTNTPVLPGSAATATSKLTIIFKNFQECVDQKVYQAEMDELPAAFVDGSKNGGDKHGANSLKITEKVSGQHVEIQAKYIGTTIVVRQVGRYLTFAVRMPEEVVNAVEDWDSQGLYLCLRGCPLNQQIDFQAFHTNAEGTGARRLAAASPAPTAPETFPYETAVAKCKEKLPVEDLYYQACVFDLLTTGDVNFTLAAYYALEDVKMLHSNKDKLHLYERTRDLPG
- protocol-description: BIAcore; Ab captured via anti-hIgG Fc on CM5 chip, antigen injected; 1:1 Langmuir fit

>  <binder>
RGMA-h5F9pJP297/pJP299 hIgG1/K mut (antibody, V domains shown, Tested as IgG; also called h5F9.AM9; H5F9AM.9) VH: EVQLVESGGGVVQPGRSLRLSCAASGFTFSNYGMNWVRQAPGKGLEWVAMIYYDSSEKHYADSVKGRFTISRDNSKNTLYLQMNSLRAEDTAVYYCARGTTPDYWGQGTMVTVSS VL: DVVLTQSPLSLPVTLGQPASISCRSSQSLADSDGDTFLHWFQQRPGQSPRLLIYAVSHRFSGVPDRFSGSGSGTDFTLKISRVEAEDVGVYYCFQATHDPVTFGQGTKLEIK

>  <kon>
860000 M⁻¹ s⁻¹

$$$$
